Measured values drawn from ChEMBL document CHEMBL1275476 for this set.

The following molecules are listed with their measured MIC values.
- Tested on: Escherichia coli
- TEST_SUMMARY: Antimicrobial activity against Escherichia coli AG100A harboring pAT392 containing mph(B) gene by broth microdilution method
- Format: functional
PROPERTY_MEASURED: MIC (µg/mL)

compound_structure=CC[C@H]1OC(=O)[C@H](C)[C@@H](O[C@H]2C[C@@](C)(OC)[C@@H](O)[C@H](C)O2)[C@H](C)[C@@H](O[C@@H]2O[C@H](C)C[C@H](N(C)C)[C@H]2O)[C@](C)(O)C[C@@H](C)C(=O)[C@H](C)[C@@H](O)[C@]1(C)O recorded_value=64
compound_structure=CCC[C@@H]1C[C@@H](C(=O)N[C@@H]([C@H]2O[C@H](SC)[C@H](O)[C@@H](O)[C@H]2O)[C@H](C)Cl)N(C)C1 recorded_value=2
compound_structure=CC[C@H]1OC(=O)C[C@@H](O)[C@H](C)[C@@H](O[C@@H]2O[C@H](C)[C@@H](O[C@H]3C[C@@](C)(O)[C@@H](O)[C@H](C)O3)[C@H](N(C)C)[C@H]2O)[C@@H](CC=O)C[C@@H](C)C(=O)/C=C/C(C)=C/[C@@H]1CO[C@@H]1O[C@H](C)[C@@H](O)[C@@H](OC)[C@H]1OC recorded_value=128
compound_structure=CO[C@@H]1[C@@H](O[C@@H]2O[C@H](C)[C@@H](O[C@H]3C[C@@](C)(O)[C@@H](OC(=O)CC(C)C)[C@H](C)O3)[C@H](N(C)C)[C@H]2O)[C@@H](CC=O)C[C@@H](C)[C@@H](O)/C=C/C=C/C[C@@H](C)OC(=O)C[C@H]1OC(C)=O recorded_value=16

---

- Tested on: Escherichia coli
- TEST_SUMMARY: Antimicrobial activity against Escherichia coli AG100A harboring pAT392 containing mph(B) and rdmC-like genes by broth microdilution method
- Format: functional
PROPERTY_MEASURED: MIC (µg/mL)

compound_structure=CO[C@@H]1[C@@H](O[C@@H]2O[C@H](C)[C@@H](O[C@H]3C[C@@](C)(O)[C@@H](OC(=O)CC(C)C)[C@H](C)O3)[C@H](N(C)C)[C@H]2O)[C@@H](CC=O)C[C@@H](C)[C@@H](O)/C=C/C=C/C[C@@H](C)OC(=O)C[C@H]1OC(C)=O reading_qualifier== recorded_value=16
compound_structure=CC[C@H]1OC(=O)[C@H](C)[C@@H](O[C@H]2C[C@@](C)(OC)[C@@H](O)[C@H](C)O2)[C@H](C)[C@@H](O[C@@H]2O[C@H](C)C[C@H](N(C)C)[C@H]2O)[C@](C)(O)C[C@@H](C)C(=O)[C@H](C)[C@@H](O)[C@]1(C)O reading_qualifier== recorded_value=64
compound_structure=CC[C@H]1OC(=O)C[C@@H](O)[C@H](C)[C@@H](O[C@@H]2O[C@H](C)[C@@H](O[C@H]3C[C@@](C)(O)[C@@H](O)[C@H](C)O3)[C@H](N(C)C)[C@H]2O)[C@@H](CC=O)C[C@@H](C)C(=O)/C=C/C(C)=C/[C@@H]1CO[C@@H]1O[C@H](C)[C@@H](O)[C@@H](OC)[C@H]1OC reading_qualifier=> recorded_value=128
compound_structure=CCC[C@@H]1C[C@@H](C(=O)N[C@@H]([C@H]2O[C@H](SC)[C@H](O)[C@@H](O)[C@H]2O)[C@H](C)Cl)N(C)C1 reading_qualifier== recorded_value=2
